# Tested on: HOP-92 NSCLC
# Procedure Summary: NCI-60 one-dose screen, 48 h
# Test Context: 10 µM unless noted
About 83,000 compounds went through this panel and 20% of them were active in at least one assay; those are over-represented in the sample as a whole. Activity calls are given as the source filed them. How the source made its calls: active means growth percent below 10; inactive means the rest.
Assign a class; possible classes are TRUE (active), FALSE (inactive)

The following compounds have reported results that may help.
• CCN(CC)c1ccc(/C=N/NC(=O)c2ccccc2Nc2ccnc(C(F)(F)F)c2)c(O)c1 = FALSE
• CO[C@H]1/C=C/O[C@@]2(C)Oc3c(C)c(O)c4c(O)c(c5c(nc6cc(C)ccn65)c4c3C2=O)NC(=O)/C(C)=C\C=C\[C@H](C)[C@H](O)[C@@H](C)C(O)[C@@H](C)[C@H](OC(C)=O)[C@@H]1C (stereo partly specified) = FALSE
• CCCCCCCCCCCCCCCCCCOc1ccccc1CC(=O)OCC[N+]1(C)CCCCC1 = TRUE

Challenge: Each compound tested received a call. Report the one for COc1ccc(S(=O)(=O)N(C)c2oc(-c3ccc(Cl)cc3)nc2C#N)cc1 .
Response given: FALSE

Challenge: Each compound tested received a call. Report the one for CCOC(=O)c1c(C)c2c(n1Cc1ccccc1)CSc1cc(C#N)c(=O)[nH]c1-2 .
Response given: TRUE

Challenge: Each compound tested received a call. Report the one for CNC1=C(Br)C(=O)c2c(C(=O)OC)c(C)nc(C)c2C1=O .
Response given: FALSE

Challenge: Each compound tested received a call. Report the one for CC(C)(C)c1ccc(C(=O)Nc2sc3c(c2C#N)CCC(=O)C3)cc1 .
Response given: TRUE

Challenge: Each compound tested received a call. Report the one for Cc1ccc(OCCOCCOCCOCCOc2ccc(C)n(O)c2=S)c(=S)n1O .
Response given: FALSE

Challenge: Each compound tested received a call. Report the one for COC(=O)c1c(C(=O)OC)c2ccc3c4ncccc4ccc3n2c1C(=O)c1ccc(C)cc1 .
Response given: FALSE

Challenge: Each compound tested received a call. Report the one for O=C(Nc1ccc(Oc2cccc(F)c2)c(Cl)c1)c1cnccn1 .
Response given: FALSE
